Molecular target: CDK2 (human) (UniProt P24941)
Test: Enzyme Assay
Details: concentration not given here
Provide the reported inhibition of each item.
Record the value in %, omitting the unit from your answer.

Data request: Form: Entry = CCCCCCCC(=O)N1CCC(Nc2nc(N)c(C(=O)c3c(F)cccc3F)s2)CC1 | System = CDK2 (human) (UniProt P24941) | inhibition = ____
Data returned: 53

Data request: Form: Entry = COc1ccc(CC(=O)N2CCC(Nc3nc(N)c(C(=O)c4c(F)cccc4F)s3)CC2)cc1C | System = CDK2 (human) (UniProt P24941) | inhibition = ____
Data returned: 62

Data request: Form: Entry = CS(=O)(=O)c1ccccc1S(=O)(=O)N1CCC(Nc2nc(N)c(C(=O)c3c(F)cccc3F)s2)CC1 | System = CDK2 (human) (UniProt P24941) | inhibition = ____
Data returned: -5

Data request: Form: Entry = CSCCC(=O)N1CCC(Nc2nc(N)c(C(=O)c3c(F)cccc3F)s2)CC1 | System = CDK2 (human) (UniProt P24941) | inhibition = ____
Data returned: 42

Data request: Form: Entry = CN(C)N=Nc1ccccc1C(=O)N1CCC(Nc2nc(N)c(C(=O)c3c(F)cccc3F)s2)CC1 | System = CDK2 (human) (UniProt P24941) | inhibition = ____
Data returned: 43

---

Biological target: UniProt P24941
Test: Enzyme Assay
Conditions: concentration not given here
Returns one of MET or NOT MET; MET when inhibition is >= 50%.

Data request: Could you verify whether the entry Cc1cccc(C(=O)N2CCC(Nc3nc(N)c(C(=O)c4c(F)cccc4F)s3)CC2)n1 shows inhibition of no less than 50%?
Data returned: MET

Data request: Could you verify whether the entry Nc1nc(NC2CCN(C(=O)C(c3ccccc3)c3ccccc3)CC2)sc1C(=O)c1c(F)cccc1F shows inhibition of no less than 50%?
Data returned: NOT MET

Data request: Could you verify whether the entry CCCC/C=C/C(=O)N1CCC(Nc2nc(N)c(C(=O)c3c(F)cccc3F)s2)CC1 shows inhibition of no less than 50%?
Data returned: NOT MET

Data request: Could you verify whether the entry CC(C)c1cc(C(C)C)c(S(=O)(=O)N2CCC(Nc3nc(N)c(C(=O)c4c(F)cccc4F)s3)CC2)c(C(C)C)c1 shows inhibition of no less than 50%?
Data returned: NOT MET

Data request: Could you verify whether the entry CCCC(CC)CC(=O)N1CCC(Nc2nc(N)c(C(=O)c3c(F)cccc3F)s2)CC1 (stereo not drawn) shows inhibition of no less than 50%?
Data returned: NOT MET

Data request: Could you verify whether the entry C=CCC(C)C(=O)N1CCC(Nc2nc(N)c(C(=O)c3c(F)cccc3F)s2)CC1 (stereo not drawn) shows inhibition of no less than 50%?
Data returned: NOT MET

Data request: Could you verify whether the entry Nc1nc(NC2CCN(C(=O)c3ccccc3COC(=O)c3ccccc3)CC2)sc1C(=O)c1c(F)cccc1F shows inhibition of no less than 50%?
Data returned: NOT MET

Data request: Could you verify whether the entry Cc1cc(C)c(/C=C/C(=O)N2CCC(Nc3nc(N)c(C(=O)c4c(F)cccc4F)s3)CC2)cc1C shows inhibition of no less than 50%?
Data returned: MET

Data request: Could you verify whether the entry CCCSc1ncccc1C(=O)N1CCC(Nc2nc(N)c(C(=O)c3c(F)cccc3F)s2)CC1 shows inhibition of no less than 50%?
Data returned: NOT MET

Data request: Could you verify whether the entry COc1cccc2cc(C(=O)N3CCC(Nc4nc(N)c(C(=O)c5c(F)cccc5F)s4)CC3)oc12 shows inhibition of no less than 50%?
Data returned: MET

Data request: Could you verify whether the entry Nc1nc(NC2CCN(C(=O)c3cc(F)c(F)c(F)c3)CC2)sc1C(=O)c1c(F)cccc1F shows inhibition of no less than 50%?
Data returned: MET

Data request: Could you verify whether the entry NC(=S)Nc1cccc(C(=O)N2CCC(Nc3nc(N)c(C(=O)c4c(F)cccc4F)s3)CC2)c1 shows inhibition of no less than 50%?
Data returned: MET

Data request: Could you verify whether the entry Nc1nc(NC2CCN(C(=O)CC3Cc4ccccc4C3)CC2)sc1C(=O)c1c(F)cccc1F shows inhibition of no less than 50%?
Data returned: NOT MET

Data request: Could you verify whether the entry Nc1nc(NC2CCN(C(=O)CC3CCCCC3)CC2)sc1C(=O)c1c(F)cccc1F shows inhibition of no less than 50%?
Data returned: NOT MET

Data request: Could you verify whether the entry Nc1cccc(CC(=O)N2CCC(Nc3nc(N)c(C(=O)c4c(F)cccc4F)s3)CC2)c1 shows inhibition of no less than 50%?
Data returned: MET

Data request: Could you verify whether the entry Cc1cccc(OCC(=O)N2CCC(Nc3nc(N)c(C(=O)c4c(F)cccc4F)s3)CC2)c1C shows inhibition of no less than 50%?
Data returned: NOT MET

These data points were gathered from the Kinase Knowledgebase extract (Sharma et al. 2016).
